Test system: Staphylococcus aureus 447
assay_comment: broth micro-dilution MIC
Type: cell-based
property_measured: MIC (µg/mL)
# value in µg/mL; strip the unit string

Using known records, supply MIC for CNC(CC(C)C)C(=O)NC1C(=O)NC(CC(N)=O)C(=O)NC2C(=O)NC3C(=O)NC(C(=O)NC(C(=O)O)c4cc(O)cc(O)c4-c4cc3ccc4O)C(OC3CC(C)(NCc4cnc5ccccc5c4)C(O)C(C)O3)c3ccc(c(Cl)c3)Oc3cc2cc(c3OC2OC(CO)C(O)C(O)C2OC2CC(C)(NCc3cnc4ccccc4c3)C(O)C(C)O2)Oc2ccc(cc2Cl)C1O (centres unmarked) [Compound 275] 1

Here's the next entry for you.
Using known records, supply MIC for CC(C)CC(C(=O)NC1C(=O)NC(CC(N)=O)C(=O)NC2C(=O)NC3C(=O)NC(C(=O)NC(C(=O)O)c4cc(O)cc(O)c4-c4cc3ccc4O)C(OC3CC(C)(N)C(O)C(C)O3)c3ccc(c(Cl)c3)Oc3cc2cc(c3OC2OC(CO)C(O)C(O)C2OC2CC(C)(NCc3ccc4ccccc4n3)C(O)C(C)O2)Oc2ccc(cc2Cl)C1O)N(C)Cc1ccc2ccccc2n1 (centres unmarked) [Compound 285] 32

====

System: Staphylococcus aureus S13E
Assay type: cell-based
property_measured: MIC

# count of solved cases: 2
Using known records, supply MIC for CNC(CC(C)C)C(=O)NC1C(=O)NC(CC(N)=O)C(=O)NC2C(=O)NC3C(=O)NC(C(=O)NC(C(=O)O)c4cc(O)cc(O)c4-c4cc3ccc4O)C(OC3CC(C)(N)C(O)C(C)O3)c3ccc(c(Cl)c3)Oc3cc2cc(c3OC2OC(CO)C(O)C(O)C2OC2CC(C)(NCc3ccc4c(c3)CCO4)C(O)C(C)O2)Oc2ccc(cc2Cl)C1O (stereo not drawn) [Compound 82] ≤ 0.06 µg/mL

Using known records, supply MIC for CNC(CC(C)C)C(=O)NC1C(=O)NC(CC(N)=O)C(=O)NC2C(=O)NC3C(=O)NC(C(=O)NC(C(=O)O)c4cc(O)cc(O)c4-c4cc3ccc4O)C(OC3CC(C)(N)C(O)C(C)O3)c3ccc(c(Cl)c3)Oc3cc2cc(c3OC2OC(CO)C(O)C(O)C2OC2CC(C)(NCc3ccc(OC(C)=O)cc3)C(O)C(C)O2)Oc2ccc(cc2Cl)C1O (stereo not drawn) [Compound 138] ≤ 0.06 µg/mL

Continuing:
Using known records, supply MIC for CNC(CC(C)C)C(=O)NC1C(=O)NC(CC(N)=O)C(=O)NC2C(=O)NC3C(=O)NC(C(=O)NC(C(=O)O)c4cc(O)cc(O)c4-c4cc3ccc4O)C(OC3CC(C)(N)C(O)C(C)O3)c3ccc(c(Cl)c3)Oc3cc2cc(c3OC2OC(CO)C(O)C(O)C2OC2CC(C)(NCc3ccc(-c4ccc(C(F)(F)F)cc4)cc3)C(O)C(C)O2)Oc2ccc(cc2Cl)C1O (stereo not drawn) [Compound 216] 1 µg/mL

Using known records, supply MIC for CNC(CC(C)C)C(=O)NC1C(=O)NC(CC(N)=O)C(=O)NC2C(=O)NC3C(=O)NC(C(=O)NC(C(=O)O)c4cc(O)cc(O)c4-c4cc3ccc4O)C(OC3CC(C)(N)C(O)C(C)O3)c3ccc(c(Cl)c3)Oc3cc2cc(c3OC2OC(CO)C(O)C(O)C2OC2CC(C)(NCc3ccc(OCc4ccccc4)c(OC)c3)C(O)C(C)O2)Oc2ccc(cc2Cl)C1O (stereo not drawn) [Compound 52] 0.5 µg/mL

Using known records, supply MIC for CNC(CC(C)C)C(=O)NC1C(=O)NC(CC(N)=O)C(=O)NC2C(=O)NC3C(=O)NC(C(=O)NC(C(=O)O)c4cc(O)cc(O)c4-c4cc3ccc4O)C(OC3CC(C)(N)C(O)C(C)O3)c3ccc(c(Cl)c3)Oc3cc2cc(c3OC2OC(CO)C(O)C(O)C2OC2CC(C)(NCc3ccc(Oc4ccccc4[N+](=O)[O-])cc3)C(O)C(C)O2)Oc2ccc(cc2Cl)C1O (stereo not drawn) [Compound 70] ≤ 0.06 µg/mL

Using known records, supply MIC for CNC(CC(C)C)C(=O)NC1C(=O)NC(CC(N)=O)C(=O)NC2C(=O)NC3C(=O)NC(C(=O)NC(C(=O)O)c4cc(O)cc(O)c4-c4cc3ccc4O)C(OC3CC(C)(NCc4ccc5c(c4)Cc4ccccc4-5)C(O)C(C)O3)c3ccc(c(Cl)c3)Oc3cc2cc(c3OC2OC(CO)C(O)C(O)C2OC2CC(C)(NCc3ccc4c(c3)Cc3ccccc3-4)C(O)C(C)O2)Oc2ccc(cc2Cl)C1O (stereo not drawn) [Compound 279] 0.25 µg/mL

====

Below is a list of entries, each paired with its recorded MIC value.
Tested on: Staphylococcus aureus S13E
Format: cell-based

Using known records, supply MIC for CCCCCCCCC#CCCCCCCNC1(C)CC(OC2C(Oc3c4cc5cc3Oc3ccc(cc3Cl)C(OC3CC(C)(N)C(O)C(C)O3)C3NC(=O)C(NC(=O)C5NC(=O)C(CC(N)=O)NC(=O)C(NC(=O)C(CC(C)C)NC)C(O)c5ccc(c(Cl)c5)O4)c4ccc(O)c(c4)-c4c(O)cc(O)cc4C(C(=O)O)NC3=O)OC(CO)C(O)C2O)OC(C)C1O (stereo not drawn) 8 µg/mL

Using known records, supply MIC for CNC(CC(C)C)C(=O)NC1C(=O)NC(CC(N)=O)C(=O)NC2C(=O)NC3C(=O)NC(C(=O)NC(C(=O)O)c4cc(O)cc(O)c4-c4cc3ccc4O)C(OC3CC(C)(N)C(O)C(C)O3)c3ccc(c(Cl)c3)Oc3cc2cc(c3OC2OC(CO)C(O)C(O)C2OC2CC(C)(NCc3ccc(OCc4ccccc4)cc3)C(O)C(C)O2)Oc2ccc(cc2Cl)C1O (stereo not drawn) 1 µg/mL

Continuing:
Using known records, supply MIC for CNC(CC(C)C)C(=O)NC1C(=O)NC(CC(N)=O)C(=O)NC2C(=O)NC3C(=O)NC(C(=O)NC(C(=O)O)c4cc(O)cc(O)c4-c4cc3ccc4O)C(OC3CC(C)(N)C(O)C(C)O3)c3ccc(c(Cl)c3)Oc3cc2cc(c3OC2OC(CO)C(O)C(O)C2OC2CC(C)(NCc3ccc(O)cc3)C(O)C(C)O2)Oc2ccc(cc2Cl)C1O (stereo not drawn) ≤ 0.06 µg/mL

====

Below is a list of entries, each paired with its recorded MIC value.
Test system: Staphylococcus aureus S13E
Assay type: cell-based

# count of solved cases: 2
Using known records, supply MIC for CNC(CC(C)C)C(=O)NC1C(=O)NC(CC(N)=O)C(=O)NC2C(=O)NC3C(=O)NC(C(=O)NC(C(=O)O)c4cc(O)cc(O)c4-c4cc3ccc4O)C(OC3CC(C)(N)C(O)C(C)O3)c3ccc(c(Cl)c3)Oc3cc2cc(c3OC2OC(CO)C(O)C(O)C2OC2CC(C)(NCc3cccc(OC(=O)C4CCCCC4)c3)C(O)C(C)O2)Oc2ccc(cc2Cl)C1O (stereo not drawn) ≤ 0.06 µg/mL

Using known records, supply MIC for CNC(CC(C)C)C(=O)NC1C(=O)NC(CC(N)=O)C(=O)NC2C(=O)NC3C(=O)NC(C(=O)NC(C(=O)O)c4cc(O)cc(O)c4-c4cc3ccc4O)C(OC3CC(C)(N)C(O)C(C)O3)c3ccc(c(Cl)c3)Oc3cc2cc(c3OC2OC(CO)C(O)C(O)C2OC2CC(C)(NCc3ccc(-c4ccc(OC)cc4)cc3)C(O)C(C)O2)Oc2ccc(cc2Cl)C1O (stereo not drawn) 0.5 µg/mL

Here's the next entry for you.
Using known records, supply MIC for CNC(CC(C)C)C(=O)NC1C(=O)NC(CC(N)=O)C(=O)NC2C(=O)NC3C(=O)NC(C(=O)NC(C(=O)O)c4cc(O)cc(O)c4-c4cc3ccc4O)C(OC3CC(C)(N)C(O)C(C)O3)c3ccc(c(Cl)c3)Oc3cc2cc(c3OC2OC(CO)C(O)C(O)C2OC2CC(C)(NCc3ccc(-c4ccc([N+](=O)[O-])cc4)c([N+](=O)[O-])c3)C(O)C(C)O2)Oc2ccc(cc2Cl)C1O (stereo not drawn) ≤ 0.06 µg/mL

====

Tested on: Haemophilus influenzae RD
assay_comment: broth micro-dilution MIC
Type: cell-based
study_conditions: Haemophilus influenzae RD
Below is a list of entries, each paired with its recorded MIC value.

# count of solved cases: 5
Using known records, supply MIC for CC(C)CC(C(=O)NC1C(=O)NC(CC(N)=O)C(=O)NC2C(=O)NC3C(=O)NC(C(=O)NC(C(=O)O)c4cc(O)cc(O)c4-c4cc3ccc4O)C(OC3CC(C)(N)C(O)C(C)O3)c3ccc(c(Cl)c3)Oc3cc2cc(c3OC2OC(CO)C(O)C(O)C2OC2CC(C)(NCc3ccccn3)C(O)C(C)O2)Oc2ccc(cc2Cl)C1O)N(C)Cc1ccccn1 (stereo not drawn) [Compound 281] > 64 µg/mL

Using known records, supply MIC for CNC(CC(C)C)C(=O)NC1C(=O)NC(CC(N)=O)C(=O)NC2C(=O)NC3C(=O)NC(C(=O)NC(C(=O)O)c4cc(O)cc(O)c4-c4cc3ccc4O)C(OC3CC(C)(N)C(O)C(C)O3)c3ccc(c(Cl)c3)Oc3cc2cc(c3OC2OC(CO)C(O)C(O)C2OC2CC(C)(NCCCC3CCCC3)C(O)C(C)O2)Oc2ccc(cc2Cl)C1O (stereo not drawn) [Compound 208] 32 µg/mL

Using known records, supply MIC for CC(C)CC(C(=O)NC1C(=O)NC(CC(N)=O)C(=O)NC2C(=O)NC3C(=O)NC(C(=O)NC(C(=O)O)c4cc(O)cc(O)c4-c4cc3ccc4O)C(OC3CC(C)(N)C(O)C(C)O3)c3ccc(c(Cl)c3)Oc3cc2cc(c3OC2OC(CO)C(O)C(O)C2OC2CC(C)(NCc3ccc(Cc4ccccc4)cc3)C(O)C(C)O2)Oc2ccc(cc2Cl)C1O)N(C)Cc1ccc(Cc2ccccc2)cc1 (stereo not drawn) [Compound 270] > 64 µg/mL

Using known records, supply MIC for C=CCCCCCCCCCNC1(C)CC(OC2C(Oc3c4cc5cc3Oc3ccc(cc3Cl)C(OC3CC(C)(N)C(O)C(C)O3)C3NC(=O)C(NC(=O)C5NC(=O)C(CC(N)=O)NC(=O)C(NC(=O)C(CC(C)C)NC)C(O)c5ccc(c(Cl)c5)O4)c4ccc(O)c(c4)-c4c(O)cc(O)cc4C(C(=O)O)NC3=O)OC(CO)C(O)C2O)OC(C)C1O (stereo not drawn) [Compound 204] 2 µg/mL

Using known records, supply MIC for CNC(CC(C)C)C(=O)NC1C(=O)NC(CC(N)=O)C(=O)NC2C(=O)NC3C(=O)NC(C(=O)NC(C(=O)O)c4cc(O)cc(O)c4-c4cc3ccc4O)C(OC3CC(C)(N)C(O)C(C)O3)c3ccc(c(Cl)c3)Oc3cc2cc(c3OC2OC(CO)C(O)C(O)C2OC2CC(C)(NCc3ccc(-c4ccc(C)c(C)c4)cc3)C(O)C(C)O2)Oc2ccc(cc2Cl)C1O (stereo not drawn) [Compound 221] 32 µg/mL

Here's the next entry for you.
Using known records, supply MIC for CC(C)CC(C(=O)NC1C(=O)NC(CC(N)=O)C(=O)NC2C(=O)NC3C(=O)NC(C(=O)NC(C(=O)O)c4cc(O)cc(O)c4-c4cc3ccc4O)C(OC3CC(C)(N)C(O)C(C)O3)c3ccc(c(Cl)c3)Oc3cc2cc(c3OC2OC(CO)C(O)C(O)C2OC2CC(C)(NCc3ccc(Oc4ccccc4)cc3)C(O)C(C)O2)Oc2ccc(cc2Cl)C1O)N(C)Cc1ccc(Oc2ccccc2)cc1 (stereo not drawn) [Compound 247] > 64 µg/mL
